# Procedure summary: AUC (0 to 24 hrs) in cage fluid of Albino guiena pig at 50 mg/kg, ip
# Type: ADME, organism-based, Cavia porcellus
# Design: time < 24 hr, dose 50 mg/kg, route intraperitoneal
# Recorded conditions: guinea pig
Metric: AUC(0-t) at 24 h

[[record]]
smiles_data = "CC(=O)NC[C@H]1CN(c2ccc(N3CCOCC3)c(F)c2)C(=O)O1"
result = "119 µg·h/mL"


====

# Procedure summary: Cmax in cage fluid of Albino guiena pig at 50 mg/kg, ip after 3 hrs
# Type: ADME, organism-based, Cavia porcellus, Interstitial fluid
# Parameters: dose 50 mg/kg, route intraperitoneal
# Recorded conditions: guinea pig
Metric: Cmax (ng/mL)

[[record]]
molecule = "CC(=O)NC[C@H]1CN(c2ccc(N3CCOCC3)c(F)c2)C(=O)O1 [LINEZOLID]"
unit_annotation = "ng/mL"
recorded_number = 12700


====

# Procedure summary: Cmin in cage fluid of Albino guiena pig at 50 mg/kg, ip after 12 hrs
# Assay type: ADME, organism-based, Cavia porcellus
# Set-up: dose 50 mg/kg, route intraperitoneal
# Recorded conditions: guinea pig, read-out: Cmin
Metric: concentration at 12 h (ng/mL)

[[record]]
smiles_data = "CC(=O)NC[C@H]1CN(c2ccc(N3CCOCC3)c(F)c2)C(=O)O1"
recorded_number = 3700


====

# Procedure summary: Tmax in cage fluid of Albino guiena pig at 50 mg/kg, ip
# Format: ADME, organism-based, Cavia porcellus
# Set-up: dose 50 mg/kg, route intraperitoneal
# Recorded conditions: guinea pig
Metric: Tmax (h)

[[record]]
molecule = "CC(=O)NC[C@H]1CN(c2ccc(N3CCOCC3)c(F)c2)C(=O)O1 [LINEZOLID]"
metric = "Tmax"
recorded_number = 3.3


====

# Procedure summary: AUC (0 to 24 hrs) in cage fluid of Albino guiena pig at 25 mg/kg, ip
# Format: ADME, organism-based, Cavia porcellus
# Parameters: time < 24 hr, dose 25 mg/kg, route intraperitoneal
# Recorded conditions: guinea pig
Metric: AUC(0-t) at 24 h (ng·h/mL)

[[record]]
smiles_data = "CC(=O)NC[C@H]1CN(c2ccc(N3CCOCC3)c(F)c2)C(=O)O1"
recorded_number = 87800


====

# Procedure summary: Tmax in cage fluid of Albino guiena pig at 75 mg/kg, ip
# Assay type: ADME, organism-based, Cavia porcellus
# Set-up: dose 75 mg/kg, route intraperitoneal
# Recorded conditions: guinea pig
Metric: Tmax

[[record]]
smiles_data = "CC(=O)NC[C@H]1CN(c2ccc(N3CCOCC3)c(F)c2)C(=O)O1"
metric = "Tmax"
result = "2.8 h"


The reported numbers originate from ChEMBL document CHEMBL1629645.
